molecular target: Adrenergic receptor alpha-2 (Rattus norvegicus, UniProt P22086+P19328+P22909); experiment: Binding affinity against alpha-2 adrenergic receptor by measuring displacement of [3H]clonidine from rat brain cortex membranes (in vitro).; type: cell membranes, Membrane
quantity name: Ki (nM)

Field: example entries. Status: answers known.
# Ki of COC1=Nc2ccccc2C2=NCC(CN3CCN(c4ccccc4Cl)CC3)N12 (stereo not given) = 116

Notebook: O=C1Nc2ccccc2C2=NC(CN3CCN(c4ccccc4)CC3)CN12 (stereo not given) , Ki read as 3860

The compound O=C1Nc2ccccc2C2=NCC(CN3CCN(c4ccccc4Cl)CC3)N12 (stereo not given) showed Ki equal to 387

Per the record, O=C1Nc2ccccc2C2=NC(CN3CCN(c4ccc(F)cc4)CC3)CN12 (stereo not given) has Ki of 391

Ki reading for COC1=Nc2ccccc2C2=NCC(CN3CCN(c4ccccc4)CC3)N12 (stereo not given) : 952

(1) O=C1Nc2ccccc2C2=NCC(CN3CCN(c4ccccc4)CC3)N12 (stereo not given)
(2) CN1C(=O)N2CC(CN3CCN(c4ccccc4Cl)CC3)N=C2c2ccccc21 (stereo not given)
(3) COc1cc2c(cc1OC)C1=NC(CN3CCN(c4ccccc4)CC3)CN1C(=O)N2 (stereo not given)
(4) COc1ccccc1N1CCN(CC2CN3C(=O)Nc4ccccc4C3=N2)CC1 (stereo not given)
Inquiry: Ascending sort, Ki. // format: requested-order list of labels
Reply text: 2, 1, 3, 4

----------
Target: Adrenergic receptor alpha-2 (Rattus norvegicus, UniProt P22086+P19328+P22909)
Sequence (P22086 whole entry): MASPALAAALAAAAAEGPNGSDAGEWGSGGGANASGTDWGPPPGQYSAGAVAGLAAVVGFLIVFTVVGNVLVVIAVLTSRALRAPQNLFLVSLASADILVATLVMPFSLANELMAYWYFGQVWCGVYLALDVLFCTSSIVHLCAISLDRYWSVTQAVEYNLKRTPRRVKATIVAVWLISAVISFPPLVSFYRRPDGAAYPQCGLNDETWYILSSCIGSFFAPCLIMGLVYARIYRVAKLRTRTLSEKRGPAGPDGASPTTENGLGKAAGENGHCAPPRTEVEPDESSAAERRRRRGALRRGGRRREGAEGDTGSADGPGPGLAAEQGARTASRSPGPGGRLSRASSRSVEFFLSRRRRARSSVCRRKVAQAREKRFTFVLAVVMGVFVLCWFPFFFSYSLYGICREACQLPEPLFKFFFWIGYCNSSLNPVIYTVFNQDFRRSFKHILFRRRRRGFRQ
Sequence (P19328 whole entry): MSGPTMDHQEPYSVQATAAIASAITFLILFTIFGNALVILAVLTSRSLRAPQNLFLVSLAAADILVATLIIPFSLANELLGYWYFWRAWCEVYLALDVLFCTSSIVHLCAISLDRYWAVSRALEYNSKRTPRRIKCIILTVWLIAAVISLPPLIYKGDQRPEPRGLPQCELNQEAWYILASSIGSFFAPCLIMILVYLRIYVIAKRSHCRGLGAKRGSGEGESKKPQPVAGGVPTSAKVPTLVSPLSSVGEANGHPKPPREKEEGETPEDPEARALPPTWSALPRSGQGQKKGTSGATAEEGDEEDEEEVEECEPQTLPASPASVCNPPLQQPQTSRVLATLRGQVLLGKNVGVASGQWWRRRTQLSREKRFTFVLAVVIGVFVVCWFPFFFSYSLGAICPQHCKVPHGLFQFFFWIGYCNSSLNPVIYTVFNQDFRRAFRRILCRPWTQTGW
Sequence (P22909 whole entry): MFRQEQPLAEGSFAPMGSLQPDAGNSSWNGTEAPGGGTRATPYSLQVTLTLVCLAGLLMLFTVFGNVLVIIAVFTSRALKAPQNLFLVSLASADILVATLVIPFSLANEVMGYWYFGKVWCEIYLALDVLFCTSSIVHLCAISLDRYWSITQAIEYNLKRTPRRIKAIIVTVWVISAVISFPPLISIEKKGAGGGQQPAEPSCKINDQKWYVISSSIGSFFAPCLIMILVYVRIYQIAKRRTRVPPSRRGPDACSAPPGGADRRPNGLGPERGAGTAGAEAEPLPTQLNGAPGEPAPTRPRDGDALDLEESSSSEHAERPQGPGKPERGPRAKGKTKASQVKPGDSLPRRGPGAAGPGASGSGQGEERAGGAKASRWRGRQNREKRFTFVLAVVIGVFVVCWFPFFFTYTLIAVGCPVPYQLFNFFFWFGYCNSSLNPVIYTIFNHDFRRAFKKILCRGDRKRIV
Experiment: Binding affinity against alpha-2 adrenergic receptor by measuring displacement of [3H]clonidine from rat brain cortex membranes (in vitro).
Type: cell membranes, Membrane
quantity name: Ki (nM)

Below: 3 molecules and their reported Ki.
Per the record, CSC1=Nc2ccccc2C2=NCC(CN3CCN(c4ccccc4Cl)CC3)N12 (stereo not given) has Ki of 223

Item: COc1ccccc1N1CCN(CC2CN=C3c4ccccc4NC(=O)N32)CC1 (stereo not given) | Ki: 593

Measured Ki, O=C1Nc2ccccc2C2=NC(CN3CCN(c4ccccc4Cl)CC3)CN12 (stereo not given) : 3166

(A) COC1=Nc2ccccc2C2=NCC(CN3CCN(c4ccccc4OC)CC3)N12 (stereo not given)
(B) COc1ccccc1N1CCN(CCn2c(=O)[nH]c3ccccc3c2=O)CC1
Inquiry: Select one: A or B . Criterion: greater recorded Ki. Choose, then provide that item's label.
Reply text: B

----------
target: Adrenergic receptor alpha-1 (Rattus norvegicus, UniProt P15823+P23944+P43140); assay: Binding affinity against alpha-1 adrenergic receptor by measuring displacement of [3H]prazosin from rat brain cortex membranes (in vitro).; format: cell membranes, Membrane
quantity name: Ki

Record excerpt, results attached:
Hey, Adrenergic receptor alpha-1 (Rattus norvegicus, UniProt P15823+P23944+P43140) data for COC1=Nc2ccccc2C2=NCC(CN3CCN(c4cccc(OC)c4)CC3)N12 (stereo not drawn) : Ki came out at > 100 nM

// Ki (Adrenergic receptor alpha-1 (Rattus norvegicus, UniProt P15823+P23944+P43140)) for COc1ccc(N2CCN(CC3CN4C(=O)Nc5ccccc5C4=N3)CC2)cc1 (stereo not drawn) = > 100 nM

Now look at this entry.
Record O=C1Nc2ccccc2C2=NC(CN3CCN(Cc4ccc5c(c4)OCO5)CC3)CN12 (stereo not drawn) ; system Adrenergic receptor alpha-1 (Rattus norvegicus, UniProt P15823+P23944+P43140); Ki = > 100 nM

----------
# key: entry, value: Ki
target: Adrenergic receptor alpha-1 (Rattus norvegicus, UniProt P15823+P23944+P43140); assay: Binding affinity against alpha-1 adrenergic receptor by measuring displacement of [3H]prazosin from rat brain cortex membranes (in vitro).; format: cell membranes, Membrane

Item: CSC1=Nc2ccccc2C2=NCC(CN3CCN(c4ccccc4)CC3)N12 (centres undefined) | Ki: > 10 nM

New cases:
Per the records, this molecule ( COc1ccc(N2CCN(CC3CN=C4c5ccccc5NC(=O)N43)CC2)cc1 (centres undefined) ) has Ki equal to > 50 nM

Looking up COC1=Nc2ccccc2C2=NCC(CN3CCN(c4ccc(OC)cc4)CC3)N12 (centres undefined) , I found its Ki recorded as > 100 nM

molecule COc1ccc(N2CCN(CC3CN=C4c5ccccc5N=C(SC)N43)CC2)cc1 (centres undefined) , Ki observed: > 100 nM
